# TARGET_SYSTEM: T1, Rabbit
# T1 construct: also called rabbit EphA4 extracellular domain-SEAP-His protein
# MEASUREMENT_NOTES: ELISA
absorbance listing for selected binders.
Please state the value as a number alone, without comment.

-- ask Query (binder): KPEP11_12 (antibody, V domains shown, Rabbit IgG; also called anti-human EphA4 rabbit monoclonal antibody KPEP11_12) VH: QSLEESGGRLVTPGTPLTLTCTVSGFSLSSYHMSWVRQAPGKGLEWIGIIYRSGNTYYANWAKGRFTISKTSTTVDLKITSPTTEDTATYFCARESSTFYGMDLWGPGTLVTVSS VL: YVMMTQTPSSVSAAVGGTVTINCQASQSVYGNNELAWYQQKPGQRPKLLIYRASTLASGVPSRFKGSGSGTEFTLTISDLECADAATYYCLGYKSDDYTFGGGTKVEIKG ; field requested: absorbance
-- reply 0.055

***
-- ask Query (binder): KPEP11_20 (antibody, V domains shown, Rabbit IgG; also called anti-human EphA4 rabbit monoclonal antibody KPEP11_20) VH: QSLEESGGRLVTPGTPLTLTCTVSGFSLNNYYMNWVRQAPGKGLEWIGIIYPDIDTTDYASWVKGRFTISKTSTTVDLKITSPTTEDTATYFCARSDIDYYTTRLDLWGQGTLVTISS VL: AQVLTQTPSPVSAAVGGTVSINCQSSPSVYNNNWLSWFQQKPGQPPKLLIYGASTLASGVPSRFKGSGSGTQFTLTISDVQCDDAATYYCAGGYDSNSDTAFGGGTELEILG ; field requested: absorbance
-- reply 0.046

-- ask Query (binder): KPEP11_05 (antibody, V domains shown, Rabbit IgG; also called anti-human EphA4 rabbit monoclonal antibody KPEP11_05) VH: QSLEESGGRLVTPGGSLTLTCTVSGIDLSSYAMSWVRQAPEKGLEWIGFINNYGTYYASWAKGRFTISKTSTTVDLKVTSLTTEDTATYFCVRGGRSPNYDIVSGDIWGPGTLVTVSS VL: YVMMTQTPSSVSEPVGGTVTIKCQASQNIYNSLAWYQQKPGQRPKLLIADASELASGVPQRFSGSGSGTQFTLTISDLECADAATYYCQSSSAGDSYVGGFGGGTEVVVKG ; field requested: absorbance
-- reply 0.035

-- ask Query (binder): KPEP11_01 (antibody, V domains shown, also called anti-human EphA4 rabbit monoclonal antibody KPEP11_01) VH: QSVEESGGRLVTPGTPLTLTCTVSGFSLSSYHMSWVRQAPGKGLEWIGIIYRSGNTYSANWAKGRFTISKTSTTVDLKITSPTTEDTATYFCARESSTFYGMDLWGPGTLVTVSS VL: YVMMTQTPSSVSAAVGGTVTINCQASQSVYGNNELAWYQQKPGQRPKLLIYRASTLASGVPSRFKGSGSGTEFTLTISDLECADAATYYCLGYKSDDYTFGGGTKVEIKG ; field requested: absorbance
-- reply 0.045
